experiment description: AUC(0 to t) in pre-cannulated Sprague-Dawley rat at 10 mg/kg administered via oral gavage after 0.5 to 24 hrs by LC-MS/MS analysis
Assay type: ADME, organism-based
Set-up: time upper 24 hr, time lower 0.5 hr, dose 10 mg/kg, route oral
test settings: in vivo
quantity name: AUC(0-t) (nM·h)

C[C@H](N)[C@@H](O)C[C@@H](O)CCCCCCCCCCCCC(F)(F)F | 2340

P. CCCCCCCCCCCCC(F)(F)[C@H](O)C[C@H](O)[C@H](C)N
Q. CCCCCCCCCCCCC[C@H](O)C[C@H](O)[C@H](C)N [ENIGMOL]
Request: Higher AUC(0-t): P or Q ? Reply with the label of the item you choose.
Result: P
(P: 1470 nM·h, Q: 832 nM·h)
